- protocol summary: Pharmacokinetics in MV4–11 xenografted nude mice (plasma and tumor)
- Type: in vivo
- measurement parameters: nude, mouse; plasma; single oral 10 mg/kg; read-out: Time of maximal plasma concentration
property label: Tmax (h)
Reply with just the number (in h).

CCc1nc(C(N)=O)c(Nc2ccc(N3CCC(N4CCN(C)CC4)CC3)c(OC)c2)nc1NC1CCOCC1 [gilteritinib] yielded Tmax of 2

###

- protocol summary: Pharmacokinetics in MV4–11 xenografted nude mice (plasma and tumor)
- Type: in vivo
- measurement parameters: nude, mouse; plasma; single oral 10 mg/kg; read-out: Cmax, plasma concentration
property label: Cmax (ng/mL)
Reply with just the number (in ng/mL).

`CCc1nc(C(N)=O)c(Nc2ccc(N3CCC(N4CCN(C)CC4)CC3)c(OC)c2)nc1NC1CCOCC1` yielded Cmax of 83
